tested on: Enterococcus faecalis; experiment: Antibacterial activity against Enterococcus faecalis ATCC 29212 by CLSI M100-S19 method; type: functional
OUTCOME_MEASURE: MIC (µg/mL)
The answer is to be given in µg/mL; state only the numeric part.

Solved cases below.
{"SMILES_CODE": "CNC(=O)C[C@@H]1NC(=O)c2csc(n2)-c2ccc(-c3nc(NC(C)=O)cs3)nc2-c2csc(n2)-c2csc(n2)[C@H]([C@@H](O)c2ccccc2)NC(=O)CNC(=O)c2nc(sc2COC)[C@H](C(C)C)NC(=O)c2nc1sc2C", "SYSTEM_NAME": "Enterococcus faecalis", "MIC [µg/mL]": 1}
{"SMILES_CODE": "CNC(=O)C[C@@H]1NC(=O)c2csc(n2)-c2ccc(C(N)=O)nc2-c2csc(n2)-c2csc(n2)[C@H]([C@@H](O)c2ccccc2)NC(=O)CNC(=O)c2nc(sc2COC)[C@H](C(C)C)NC(=O)c2nc1sc2C", "SYSTEM_NAME": "Enterococcus faecalis", "MIC [µg/mL]": 32}
{"SMILES_CODE": "CNC(=O)C[C@@H]1NC(=O)c2csc(n2)-c2ccc(-c3nc(C4=N[C@H](C(=O)N5CCC[C@H]5C(N)=O)CO4)cs3)nc2-c2csc(n2)-c2csc(n2)[C@H]([C@@H](O)c2ccccc2)NC(=O)CNC(=O)c2nc(sc2COC)[C@H](C(C)C)NC(=O)c2nc1sc2C", "SYSTEM_NAME": "Enterococcus faecalis", "MIC [µg/mL]": 0.5}

Consider now this further compound.
Name the reported MIC value associated with the compound CNC(=O)C[C@@H]1NC(=O)c2csc(n2)-c2ccc(-c3nc(NS(C)(=O)=O)cs3)nc2-c2csc(n2)-c2csc(n2)[C@H]([C@@H](O)c2ccccc2)NC(=O)CNC(=O)c2nc(sc2COC)[C@H](C(C)C)NC(=O)c2nc1sc2C
2

Every entry's value here was drawn from ChEMBL document CHEMBL1765025.
